B1: library; numbered along this chain (parent)
chain: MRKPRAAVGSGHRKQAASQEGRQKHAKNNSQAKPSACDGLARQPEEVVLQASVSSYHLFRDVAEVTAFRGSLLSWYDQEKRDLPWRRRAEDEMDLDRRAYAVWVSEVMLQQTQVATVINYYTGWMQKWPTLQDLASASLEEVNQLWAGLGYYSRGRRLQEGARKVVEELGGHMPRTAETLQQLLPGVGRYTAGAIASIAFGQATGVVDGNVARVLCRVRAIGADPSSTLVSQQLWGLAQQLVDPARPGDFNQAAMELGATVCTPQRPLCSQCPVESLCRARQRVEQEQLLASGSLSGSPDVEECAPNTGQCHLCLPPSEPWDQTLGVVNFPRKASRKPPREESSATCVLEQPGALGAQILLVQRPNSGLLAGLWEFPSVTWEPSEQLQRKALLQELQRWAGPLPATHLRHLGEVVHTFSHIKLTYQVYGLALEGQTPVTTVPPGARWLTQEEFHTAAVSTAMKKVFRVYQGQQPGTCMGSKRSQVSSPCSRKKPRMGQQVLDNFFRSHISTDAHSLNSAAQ

variants of: B1; experiment: 8OG:A repair function score (normalized; synonymous = 0, nonsense = -1) (normalized log-likelihood score); higher = more repair activity (WT-like); details: with 8OG:A DNA repair reporter (GFP) in HEK-293 MUTYH KO cells;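 also: cells sorted at 72 h after reporter transfection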
# 8OG:A repair function score >= -0.5 gives 1, anything below gives -1

> print(dat)
    alteration  classification
 1        D91P               1
 2       N366K               1
 3       F466E              -1
 4       G309W               1
 5       R467A               1
 6       P273W              -1
 7        L49H               1
 8       R495H               1
 9        Y76I              -1
10       L315H               1
11       A254G               1
12        Y56A               1
13       I509Q               1
14       A162Y              -1
15       G471A               1
16       Q144V               1
17        F59E              -1
18        R69P              -1
19       L109A               1
20       V301A               1
21       T130A               1
